Value source: patent US20260207704A1

# Experimental target: beta-catenin (human)
# Sequence (B6V8E6 146-665 limits assumed): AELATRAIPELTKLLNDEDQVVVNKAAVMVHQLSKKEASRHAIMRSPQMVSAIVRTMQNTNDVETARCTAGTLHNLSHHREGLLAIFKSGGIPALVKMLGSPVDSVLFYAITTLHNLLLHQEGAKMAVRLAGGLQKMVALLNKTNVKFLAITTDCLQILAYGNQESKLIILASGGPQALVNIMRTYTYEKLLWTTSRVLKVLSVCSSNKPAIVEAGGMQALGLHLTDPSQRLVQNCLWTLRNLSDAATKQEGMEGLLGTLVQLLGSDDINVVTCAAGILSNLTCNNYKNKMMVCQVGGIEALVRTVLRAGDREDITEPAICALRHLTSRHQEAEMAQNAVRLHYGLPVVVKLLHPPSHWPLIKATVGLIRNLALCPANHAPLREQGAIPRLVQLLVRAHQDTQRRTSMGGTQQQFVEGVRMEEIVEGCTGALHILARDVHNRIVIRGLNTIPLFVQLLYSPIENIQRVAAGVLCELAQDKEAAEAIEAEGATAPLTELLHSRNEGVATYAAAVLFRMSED
# Test method notes: fluorescence polarization
pIC50: −log10 of the molar value. *1 amine or outer side, *2 acyl side, *3 side chain or, on linkers, in order; H or OH if unused. Bridges are numbered along the chain shown (N, C = ends). Primed or numbered codes have the meaning given here. [ ]: non-standard residue; d: D form. PyrS2″ = (S)-3-amino-1-((pent-4-en-1-yloxy)carbonyl)pyrrolidine-3-carboxylic acid (olefin stapling residue), C=CCCCOC(=O)N1CC[C@@](N[*:1])(C(=O)[*:2])C1; PyrS2(3) = (S)-3-amino-1-((pent-4-en-1-yloxy)carbonyl)pyrrolidine-3-carboxylic acid, olefin residue, C=CCCCOC(=O)N1CC[C@@](N[*:1])(C(=O)[*:2])C1; PyrS2(5) = (S)-3-amino-1-((pent-4-en-1-yloxy)carbonyl)pyrrolidine-3-carboxylic acid, C=CCCCOC(=O)N1CC[C@@](N[*:1])(C(=O)[*:2])C1; B5(5) = 2-amino-2-(pent-4-en-1-yl)hept-6-enoic acid (two olefin arms), C=CCCCC(CCCC=C)(N[*:1])C(=O)[*:2]; B5(3) = 2-amino-2-(pent-4-en-1-yl)hept-6-enoic acid, two olefin arms, C=CCCCC(CCCC=C)(N[*:1])C(=O)[*:2]; 2F3MeF″ = aromatic residue, Cc1cccc(C[C@H](N[*:1])C(=O)[*:2])c1F; Phe(3-COOH) = N[C@@H](Cc1cccc(C(=O)O)c1)C(=O)O; Bta = N[C@@H](Cc1csc2ccccc12)C(=O)O; αAllylPro = C=CC[C@@]1(C(=O)O)CCCN1; BztA = aromatic amino acid residue; tBuAla = CC(C)(C)C[C@H](N)C(=O)O; 3Thi = N[C@@H](Cc1ccsc1)C(=O)O; Nle = CCCC[C@H](N)C(=O)O; GlnR = not defined here; PL3 = not defined here; B5 = not defined here
Measurement kind: pIC50

binder="Ac-[αAllylPro]DL[B5(5)]DDAAFK[PyrS2(5)][3Thi][Bta][GlnR]-NH2 (bridge 10-14; not fully specified (bridges); printed as Ac-PL3-Asp-Leu-B5-Asp-Asp-Ala-Ala-Phe-Lys*3-PyrS2-3Thi-BztA-GlnR*3-NH2; reading uncertain) [I-4]" measurement_kind=pIC50 measured_value="> 7.30"
binder="Ac-[PL3]N[tBuAla][B5]D[Phe(3-COOH)]SAFK[PyrS2″][3Thi][BztA][GlnR]A-NH2 (staple 1-4 (inferred); bridge 10-14; not fully specified (residue 10, bridges); printed as Ac-PL3-Asn-Npg-B5-Asp-3COOHF-Ser-Ala-Phe-Lys*3-PyrS2-3Thi-BztA-GlnR*3-Ala-NH2; reading uncertain) [I-84]" measurement_kind=pIC50 measured_value="> 7.30"
binder="Ac-[αAllylPro]D[tBuAla][B5(3)]D[Phe(3-COOH)][Nle]AFK[PyrS2(3)][2F3MeF″][Bta][GlnR]A-NH2 (bridge 10-14; not fully specified (bridges); printed as Ac-PL3-Asp-Npg-B5-Asp-3COOHF-nLeu-Ala-Phe-Lys*3-PyrS2-2F3MeF-BztA-GlnR*3-Ala-NH2; reading uncertain) [I-71]" measurement_kind=pIC50 measured_value="> 7.30"
